Measured pIC50 accompanies every entry in the list below.
# Test system: HOP-62 multicell spheroids with HUVEC/MSC, viability
# assay-protocol: Anticancer human tumor HOP-62 cell line growth inhibition [KRAS2];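 note: viability read after a week of compound exposure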
# run-conditions: curve of first compound; second compound 1 µM
pIC50: −log10 of the molar value.

compound	op	pIC50
CC1COCCN1c1cc(-c2ccnn2C)c2ccnc(-c3ccn[nH]3)c2n1 (stereo not given) + COc1cc2nc(C)nc(NC(C)c3cc(N)cc(C(F)(F)F)c3)c2cc1OC1CCOC1	=	7.27
CC1OCC2(CCN(c3cnc(Sc4ccnc(N)c4Cl)c(N)n3)CC2)C1N (stereo not given) + C=CC(=O)N1CCN(c2nc(=O)n(-c3c(C)ccnc3C(C)C)c3nc(-c4c(O)cccc4F)c(F)cc23)C(C)C1	=	7.04
CC(=O)Nc1cccc(-n2c(=O)n(C3CC3)c(=O)c3c(Nc4ccc(I)cc4F)n(C)c(=O)c(C)c32)c1 + C=CC(=O)N1CCN(c2nc(=O)n(-c3c(C)ccnc3C(C)C)c3nc(-c4c(O)cccc4F)c(F)cc23)C(C)C1	=	9.04
CN(C)C/C=C/C(=O)Nc1cc2c(Nc3ccc(F)c(Cl)c3)ncnc2cc1O[C@H]1CCOC1 + C=CC(=O)N1CCN(c2nc(OCC3CCCN3C)nc3c2CCN(c2cccc4cccc(C)c24)C3)CC1CC#N	>	9.50
CC1OCC2(CCN(c3cnc(Sc4ccnc(N)c4Cl)c(N)n3)CC2)C1N (stereo not given) + CNCc1ccccc1-c1csc(C(C)Nc2nc(C)nc3cc(OC)c(OC)cc23)c1	=	6.20
O=C(c1cc(Cc2n[nH]c(=O)c3ccccc23)ccc1F)N1CCN(C(=O)C2CC2)CC1 + C=CC(=O)N1CCN(c2nc(OCC3CCCN3C)nc3c2CCN(c2cccc4cccc(C)c24)C3)CC1CC#N	>	7.50
COc1cc(Nc2ncc3c(n2)-c2ccc(Cl)cc2C(c2c(F)cccc2OC)=NC3)ccc1C(=O)O + CC1OCC2(CCN(c3cnc(Sc4ccnc(N)c4Cl)c(N)n3)CC2)C1N	>	7.50
CCN1CCN(Cc2ccc(Nc3ncc(F)c(-c4cc(F)c5nc(C)n(C(C)C)c5c4)n3)nc2)CC1 + C=CC(=O)N1CCN(c2nc(=O)n(-c3c(C)ccnc3C(C)C)c3nc(-c4c(O)cccc4F)c(F)cc23)C(C)C1	=	6.30
Cn1ncnc1[C@H]1c2n[nH]c(=O)c3cc(F)cc(c23)N[C@@H]1c1ccc(F)cc1 + C=CC(=O)N1CCN(c2nc(OCC3CCCN3C)nc3c2CCN(c2cccc4cccc(C)c24)C3)CC1CC#N	>	9.50
CC(=O)Nc1cccc(-n2c(=O)n(C3CC3)c(=O)c3c(Nc4ccc(I)cc4F)n(C)c(=O)c(C)c32)c1 + C=CC(=O)N1CCN(c2nc(OCC3CCCN3C)nc3c2CCN(c2cccc4cccc(C)c24)C3)CC1CC#N	>	10.00

----------
viability, T/C: recorded values
# System: HOP-62 multicell spheroids with HUVEC/MSC, viability
# assay-protocol: Anticancer human tumor HOP-62 cell line growth inhibition [KRAS2];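 note: viability read after a week of compound exposure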;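 for viability, T/C: 100% = DMSO vehicle-treated spheroids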
# run-conditions: second compound 0.0316 µM; first compound 0.001 µM; stronger effect = lower value
measured-endpoint: viability, T/C (%)

molecule	test-system	measured-endpoint	experimental-value
CN(C)C/C=C/C(=O)Nc1cc2c(Nc3ccc(F)c(Cl)c3)ncnc2cc1O[C@H]1CCOC1 + C=CC(=O)N1CCN(c2nc(OCC3CCCN3C)nc3c2CCN(c2cccc4cccc(C)c24)C3)CC1CC#N	HOP-62 multicell spheroids with HUVEC/MSC, viability	viability, T/C	105
CC(C)n1nc(-c2ccc3oc(N)nc3c2)c2c(N)ncnc21 + C=CC(=O)N1CCN(c2nc(OCC3CCCN3C)nc3c2CCN(c2cccc4cccc(C)c24)C3)CC1CC#N	HOP-62 multicell spheroids with HUVEC/MSC, viability	viability, T/C	37
CC(=O)Nc1cccc(-n2c(=O)n(C3CC3)c(=O)c3c(Nc4ccc(I)cc4F)n(C)c(=O)c(C)c32)c1 + C=CC(=O)N1CCN(c2nc(OCC3CCCN3C)nc3c2CCN(c2cccc4cccc(C)c24)C3)CC1CC#N	HOP-62 multicell spheroids with HUVEC/MSC, viability	viability, T/C	56.2
Cn1ncnc1[C@H]1c2n[nH]c(=O)c3cc(F)cc(c23)N[C@@H]1c1ccc(F)cc1 + C=CC(=O)N1CCN(c2nc(OCC3CCCN3C)nc3c2CCN(c2cccc4cccc(C)c24)C3)CC1CC#N	HOP-62 multicell spheroids with HUVEC/MSC, viability	viability, T/C	79.7

Origin of measurements: PubChem BioAssay AID1963858
